biological target: Fuc(a1-3)[Gal(b1-4)]GlcNAc(b1-2)Man; assay: glycan array binding signal (z-score within array); higher = stronger binding; details: glycan notation: IUPAC condensed, linker removed
Only a selection was taken, and the strongest signals are over-represented in it overall.
assay-metric: glycan array binding signal (z-score)
Form field (numeric): enter value without unit.

- binder: "EPL1 (Trichoderma atroviride), A0PCX2 (protein) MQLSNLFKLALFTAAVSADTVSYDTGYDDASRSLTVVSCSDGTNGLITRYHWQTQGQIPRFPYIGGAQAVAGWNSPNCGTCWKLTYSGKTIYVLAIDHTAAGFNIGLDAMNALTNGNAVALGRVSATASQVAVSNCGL"
  assay-metric: "glycan array binding signal (z-score)"
  recorded-result: 0.185

Entry SP15308A-bot-339-19-339 (Bacteroides ovatus) (protein) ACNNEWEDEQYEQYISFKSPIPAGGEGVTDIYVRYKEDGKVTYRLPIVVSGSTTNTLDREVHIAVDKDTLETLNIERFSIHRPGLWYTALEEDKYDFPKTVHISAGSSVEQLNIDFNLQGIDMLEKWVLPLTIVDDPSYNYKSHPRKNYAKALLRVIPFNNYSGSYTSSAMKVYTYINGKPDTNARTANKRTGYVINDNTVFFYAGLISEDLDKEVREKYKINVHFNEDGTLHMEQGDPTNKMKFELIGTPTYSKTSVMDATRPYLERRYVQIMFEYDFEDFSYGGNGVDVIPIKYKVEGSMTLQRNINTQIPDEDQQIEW needs its glycan array binding signal (z-score) filled in; supply it.
0.187

Supply measured glycan array binding signal (z-score) of rCnSL-proB (Clitocybe nebularis) (protein) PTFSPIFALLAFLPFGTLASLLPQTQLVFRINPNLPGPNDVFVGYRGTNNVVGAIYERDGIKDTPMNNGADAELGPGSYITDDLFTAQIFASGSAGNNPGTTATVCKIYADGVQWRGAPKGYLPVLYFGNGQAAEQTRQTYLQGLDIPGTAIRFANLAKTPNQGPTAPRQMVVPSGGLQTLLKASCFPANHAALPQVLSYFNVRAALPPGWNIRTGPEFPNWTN in your reply.
-0.565
